Each entry below carries its reported pIC50.
- Tested on: B16
- TEST_DESCRIPTION: Cytotoxicity against mouse B16 cells after 48 hrs by MTT assay
- Assay type: functional, cell-based
- CONDITION_SET: B16, 48 h
pIC50: −log10 of the molar value.

MOLECULE | pIC50
O=C(/C=C/c1ccc(Cl)c(Cl)c1)NCc1cc2c([nH]c3ccccc32)c(-c2cccc(F)c2)n1 | 7.72
COc1cc(/C=C/C(=O)NCc2cc3c([nH]c4ccccc43)c(-c3cc(OC)c(OC)c(OC)c3)n2)ccc1O | 7.72
COc1ccc(OC)c(/C=C/C(=O)NCc2cc3c([nH]c4ccccc43)c(-c3cccc(F)c3)n2)c1 | 7.70
COc1cc(-c2nc(CNC(=O)/C=C/c3ccc(Cl)c(Cl)c3)cc3c2[nH]c2ccccc23)cc(OC)c1OC | 7.77
COc1ccc(-c2nc(CNC(=O)/C=C/c3cc(OC)c(OC)c(OC)c3)cc3c2[nH]c2ccccc23)cc1 | 7.76
COc1ccc(-c2nc(CNC(=O)/C=C/c3cc(F)cc(F)c3)cc3c2[nH]c2ccccc23)cc1 | 7.62
O=C(/C=C/c1ccc(Cl)cc1)NCc1cc2c([nH]c3ccccc32)c(-c2cccc(F)c2)n1 | 7.74
COc1cc(-c2nc(CNC(=O)/C=C/c3ccc(F)cc3)cc3c2[nH]c2ccccc23)cc(OC)c1OC | 7.76

---

- Tested on: B16
- TEST_DESCRIPTION: Cytotoxicity against mouse B16 cells after 48 hrs by MTT assay
- Format: functional, cell-based
- CONDITION_SET: B16, 48 h
pIC50: −log10 of the molar value.
Each entry below carries its reported pIC50.
PROPERTY_LABEL: pIC50

MOLECULE | DATA_VALUE
COc1cc(/C=C/C(=O)NCc2cc3c([nH]c4ccccc43)c(-c3cccc(F)c3)n2)cc(OC)c1OC | 7.70
COc1ccc(-c2nc(CNC(=O)/C=C/c3cccc(O)c3)cc3c2[nH]c2ccccc23)cc1 | 7.79
COc1cc(/C=C/C(=O)NCc2cc3c([nH]c4ccccc43)c(-c3cccc(F)c3)n2)ccc1O | 7.71
O=C(/C=C/c1cccc(O)c1)NCc1cc2c([nH]c3ccccc32)c(-c2cccc(F)c2)n1 | 7.60
COc1ccc(-c2nc(CNC(=O)/C=C/c3ccc(Cl)cc3)cc3c2[nH]c2ccccc23)cc1 | 7.78

---

- Test system: A549
- TEST_DESCRIPTION: Cytotoxicity against human A549 cells after 48 hrs by MTT assay
- Assay type: functional, cell-based
- CONDITION_SET: A549, 48 h
pIC50: −log10 of the molar value.

MOLECULE | SYSTEM_NAME | pIC50
COc1ccc(-c2nc(CNC(=O)/C=C/c3cc(OC)ccc3OC)cc3c2[nH]c2ccccc23)cc1 | A549 | 7.72
COc1ccc(-c2nc(CNC(=O)/C=C/c3ccc(Cl)c(Cl)c3)cc3c2[nH]c2ccccc23)cc1 | A549 | 7.73
O=C(/C=C/c1cc(F)cc(F)c1)NCc1cc2c([nH]c3ccccc32)c(-c2cccc(F)c2)n1 | A549 | 7.68
COc1ccc(-c2nc(CNC(=O)/C=C/c3ccc(F)cc3)cc3c2[nH]c2ccccc23)cc1 | A549 | 7.70
COc1cc(-c2nc(CNC(=O)/C=C/c3ccc(Cl)cc3)cc3c2[nH]c2ccccc23)cc(OC)c1OC | A549 | 7.72
COc1cc(-c2nc(CNC(=O)/C=C/c3cc(F)cc(F)c3)cc3c2[nH]c2ccccc23)cc(OC)c1OC | A549 | 7.67
COc1cc(-c2nc(CNC(=O)/C=C/c3cccc(O)c3)cc3c2[nH]c2ccccc23)cc(OC)c1OC | A549 | 7.71
COc1ccc(OC)c(/C=C/C(=O)NCc2cc3c([nH]c4ccccc43)c(-c3cc(OC)c(OC)c(OC)c3)n2)c1 | A549 | 7.73
COc1cc(/C=C/C(=O)NCc2cc3c([nH]c4ccccc43)c(-c3cc(OC)c(OC)c(OC)c3)n2)ccc1O | A549 | 7.74

---

- System: A549
- TEST_DESCRIPTION: Cytotoxicity against human A549 cells after 48 hrs by MTT assay
- Assay type: functional, cell-based
- CONDITION_SET: A549, 48 h
pIC50: −log10 of the molar value.
Each entry below carries its reported pIC50.
PROPERTY_LABEL: pIC50

MOLECULE | OPERATOR_SYMBOL | DATA_VALUE
O=C(/C=C/c1ccc(Cl)c(Cl)c1)NCc1cc2c([nH]c3ccccc32)c(-c2cccc(F)c2)n1 | = | 7.74
O=C(/C=C/c1ccc(Cl)cc1)NCc1cc2c([nH]c3ccccc32)c(-c2cccc(F)c2)n1 | = | 7.71
COc1ccc(-c2nc(CNC(=O)/C=C/c3cccc(O)c3)cc3c2[nH]c2ccccc23)cc1 | = | 7.72
COc1cc(/C=C/C(=O)NCc2cc3c([nH]c4ccccc43)c(-c3cc(OC)c(OC)c(OC)c3)n2)cc(OC)c1OC | = | 7.67
COc1cc(-c2nc(CNC(=O)/C=C/c3ccc(Cl)c(Cl)c3)cc3c2[nH]c2ccccc23)cc(OC)c1OC | = | 7.69
C=CCNC(=O)/C=C/c1cccc(O)c1 | < | 4.30
C/C=C/C(=O)NCc1cc2c([nH]c3ccccc32)c(-c2ccc(OC)cc2)n1 | = | 5.47
COc1ccc(-c2nc(CNC(=O)CCCl)cc3c2[nH]c2ccccc23)cc1 | < | 4.30
COc1cc(/C=C/C(=O)NCc2cc3c([nH]c4ccccc43)c(-c3cccc(F)c3)n2)cc(OC)c1OC | = | 7.75
COc1cc(/C=C/C(=O)NCc2cc3c([nH]c4ccccc43)c(-c3cccc(F)c3)n2)ccc1O | = | 7.65
COc1ccc(-c2nc(CNC(=O)/C=C/c3cc(F)cc(F)c3)cc3c2[nH]c2ccccc23)cc1 | = | 7.70
COc1cc(-c2nc(CNC(=O)/C=C/c3ccc(F)cc3)cc3c2[nH]c2ccccc23)cc(OC)c1OC | = | 7.73
COc1ccc(-c2nc(CNC(=O)/C=C/c3ccc(Cl)cc3)cc3c2[nH]c2ccccc23)cc1 | = | 7.72
COc1ccc(-c2nc(CNC(=O)/C=C/c3ccc(O)c(OC)c3)cc3c2[nH]c2ccccc23)cc1 | = | 7.67
COc1ccc(-c2nc(CNC(=O)/C=C/c3cc(OC)c(OC)c(OC)c3)cc3c2[nH]c2ccccc23)cc1 | = | 7.71
O=C(/C=C/c1ccc(F)cc1)NCc1cc2c([nH]c3ccccc32)c(-c2cccc(F)c2)n1 | = | 7.79
O=C(/C=C/c1cccc(O)c1)NCc1cc2c([nH]c3ccccc32)c(-c2cccc(F)c2)n1 | = | 7.63
COc1ccc(OC)c(/C=C/C(=O)NCc2cc3c([nH]c4ccccc43)c(-c3cccc(F)c3)n2)c1 | = | 7.65

---

Each entry below carries its reported IC50.
- System: B16
- TEST_DESCRIPTION: Cytotoxicity against mouse B16 cells after 48 hrs by MTT assay
- Assay type: functional, cell-based
- CONDITION_SET: B16, 48 h

MOLECULE | IC50 [nM]
COc1cccc2c1C(=O)c1c(O)c3c(c(O)c1C2=O)C[C@@](O)(C(=O)CO)C[C@@H]3O[C@H]1C[C@H](N)[C@H](O)[C@H](C)O1 [DOXORUBICIN] | 670
COc1ccc(-c2nc(CNC(=O)/C=C/c3ccc(Cl)c(Cl)c3)cc3c2[nH]c2ccccc23)cc1 | 23
COc1cc(-c2nc(CNC(=O)/C=C/c3cc(F)cc(F)c3)cc3c2[nH]c2ccccc23)cc(OC)c1OC | 24.1
COc1cc(-c2nc(CNC(=O)/C=C/c3ccc(Cl)cc3)cc3c2[nH]c2ccccc23)cc(OC)c1OC | 18.7
COc1ccc(OC)c(/C=C/C(=O)NCc2cc3c([nH]c4ccccc43)c(-c3cc(OC)c(OC)c(OC)c3)n2)c1 | 19.2
O=C(/C=C/c1cc(F)cc(F)c1)NCc1cc2c([nH]c3ccccc32)c(-c2cccc(F)c2)n1 | 18.2
COc1ccc(-c2nc(CNC(=O)/C=C/c3ccc(O)c(OC)c3)cc3c2[nH]c2ccccc23)cc1 | 19.8
O=C(/C=C/c1ccc(F)cc1)NCc1cc2c([nH]c3ccccc32)c(-c2cccc(F)c2)n1 | 16.8

---

- Test system: B16
- TEST_DESCRIPTION: Cytotoxicity against mouse B16 cells after 48 hrs by MTT assay
- Assay type: functional, cell-based
- CONDITION_SET: B16, 48 h
pIC50: −log10 of the molar value.
Each entry below carries its reported pIC50.

MOLECULE | pIC50
COc1ccc(-c2nc(CNC(=O)/C=C/c3ccc(F)cc3)cc3c2[nH]c2ccccc23)cc1 | 7.66
COc1cc(/C=C/C(=O)NCc2cc3c([nH]c4ccccc43)c(-c3cc(OC)c(OC)c(OC)c3)n2)cc(OC)c1OC | 7.76
COc1ccc(-c2nc(CNC(=O)/C=C/c3cc(OC)ccc3OC)cc3c2[nH]c2ccccc23)cc1 | 7.65
COc1cc(-c2nc(CNC(=O)/C=C/c3cccc(O)c3)cc3c2[nH]c2ccccc23)cc(OC)c1OC | 7.66

// provenance: ChEMBL document CHEMBL4152353
